Exercise: state measured Emax for each of the molecules provided.
System: human FXR (NR1H4) (Homo sapiens (Human))
Sequence (Q96RI1 whole entry, the tested form may be a part): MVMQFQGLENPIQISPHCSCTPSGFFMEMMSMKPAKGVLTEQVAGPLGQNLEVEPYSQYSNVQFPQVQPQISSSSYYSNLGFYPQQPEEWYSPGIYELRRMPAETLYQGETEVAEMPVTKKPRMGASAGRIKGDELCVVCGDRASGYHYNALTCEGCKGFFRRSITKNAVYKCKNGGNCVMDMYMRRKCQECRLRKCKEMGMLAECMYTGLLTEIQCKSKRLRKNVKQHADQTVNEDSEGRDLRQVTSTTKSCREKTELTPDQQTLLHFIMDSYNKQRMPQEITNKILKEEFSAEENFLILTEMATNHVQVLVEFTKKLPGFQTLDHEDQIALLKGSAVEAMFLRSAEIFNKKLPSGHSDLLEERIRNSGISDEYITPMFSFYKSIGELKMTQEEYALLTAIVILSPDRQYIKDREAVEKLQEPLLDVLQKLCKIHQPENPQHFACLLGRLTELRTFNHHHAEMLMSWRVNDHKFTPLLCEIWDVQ
Measurement Notes: Human FXR (NR1H4) Assay (Gal4 promoter driven luciferase reporter, Indigo Bioscience kit);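 also: 100% equals the efficacy of CDCA; efficacy normalized to CDCA set as 100%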
Format: cell-based
Condition Notes: read-out: Efficacy (%)
Expressed in %, but write only the number.

Quote Emax reported for CC[C@H]1[C@@H](O)[C@@H]2[C@H](CC[C@]3(C)[C@@H]([C@H](C)CCOC(=O)NS(=O)(=O)c4ccc(C(C)(C)C(=O)OC)cc4)CC[C@@H]23)[C@@]2(C)CC[C@@H](O)C[C@@H]12 [Example 55] please.
258

Quote Emax reported for CC[C@H]1[C@@H](O)[C@@H]2[C@H](CC[C@]3(C)[C@@H]([C@H](C)COC(=O)NS(=O)(=O)c4ccc(N5CCCCC5)cc4)CC[C@@H]23)[C@@]2(C)CC[C@@H](O)C[C@@H]12 [Example 9] please.
208
